biological target: gB AD-2S1 peptide (human cytomegalovirus); experiment: SPR; conditions: both partners purified
Record form. Attribute: kon. Fill in for each entry.
Just the number in M⁻¹ s⁻¹, nothing appended.

Req: What kon value was documented for this binder, MAB310 (I3) (antibody, V domains shown) VH: QVQLVQSGGGVVQPGTSLRLSCAASGFMFNTYNMHWVRQAPGKGLEWVAVISNDGTYKYSADSLKGRFSISRDNSKNTLYLHMNSLRPDDTAVYYCARDGRSVGGFSGILDPWGQGTLVTVSS VL: EIVLTQSPATLSLSPGDRATLSCRASQTVGRYLAWYQQKPGQAPRLLIYDASDRATGISARFSGSGSGTDFTLTISSLEPEDFAVYYCQQRSNWPPLTFGGGTKVEIK ?
Resp: 1.87e+08

Req: I have this binder here, MAB309 (I2) (antibody, V domains shown) VH: QVQLVQSGGGVVQPGTSLRLSCAASGFMFNTYNMHWVRQAPGKGLEWVAVISNDGTYKHFADSLKGRFSISRDDSKNTLYLHMNSLRPDDTAIYYCARDGRSVGGFSGILDPWGQGTLVTVSS VL: EIVLTQSPATLSLSPGDRATLSCRASQTVGRYLAWYQQKPGQAPRLLIYDASDRATGISARFSGSGSGTDFTLTISSLEPEDFAVYYCQQRSSWPPLTFGGGTKVEIK , and I need its recorded kon.
Resp: 1.24e+08

Req: Tell me the measured kon of I5 (antibody, V domains shown, also called intermediate 5) VH: QVQLVESGGGVVQPGRSLRLSCSASGFTFSDYNLHWVRQAPGKGLEWVAVISIDGSNKHHADSVKGRFTISRDNSKNTVNLQMNSLRAEDTAVYYCARDGRSVGGYSGILDPWGQGTLVTVSS VL: EIVLTQSPATLSLSPGERATLSCRASQSVGSYLAWYQQKPGQAPRLLIYDASERATGIPARFSGSGSGTDFTLTISSLEPEDVAVYYCQQRSNWPPLTFGGGTKVEIK , please.
Resp: 1.23e+08

Req: Fill in: kon of I1 (antibody, V domains shown, also called intermediate 1) VH: QVQLVESGGGVVQPGRSLRLSCAASGFTFNTYNMHWVRQAPGKGLEWVAVISNDGTYKYSADSVKGRFSISRDNSKNTLYLQMNSLRPDDTAVYYCARDGRSVGGFSGILDPWGQGTLVTVSS VL: EIVMTQSPATLSLSPGDRATLSCRASQSVGSYLAWYQQKPGQAPRLLIYDASDRATGIPARFSGSGSGTDFTLTISSLEPEDFAVYYCQQRSNWPPLTFGGGTKVEIK is ___
Resp: 1.43e+08

Req: Suppose we examine the binder MAB316 (antibody, V domains shown) VH: QVQLVQSGGGVVQPGRSLTLSCAASGFTFSGFSLHWVRQAPGKGLQWVAVISFDGNHKHFADSLKGRFTISRDNSKNTLYLQINDLRGEDTAVYYCARDGRAVDGFSGILDFWGQGTLVSVSS VL: EIVMTQSPATLSLSPGERATLSCRASQSVGRYLTWFQQKPGQAPRLLIYDASERATGVPARFSGSGSGTDFTLTISSLEPEDFAVYYCQQRSNWPPLTFGGGTKVEIK ; what kon value has been reported?
Resp: 1.63e+08
